System: SF-268 CNS
Experiment: NCI tumour cell line growth inhibition, 48 h
Parameter: TGI. Scope: all listed entries.
Value Type: TGI

molecule="COc1ccc(COCC[C@H](C)OC2OC(CO)C(O)C(O)C2O)cc1 (stereo not given in full)" experimental_result="> 100 µM"
molecule=NCCCN=c1ccc2c3c1c(O)c1c(O)ccc(=O)c1c3[nH]n2CCNCCO experimental_result="6.51 µM"
molecule=CO/C(=N\N=C\c1ccc(Cl)c(Cl)c1)c1ccncc1 experimental_result="> 10 µM"
molecule=N#C/C(=C(/O)CCl)c1nc2ccccc2o1 experimental_result="8.57 µM"
molecule=Cc1ccc(C(=O)Oc2ccccc2)cc1N=NN(C)C experimental_result="> 100 µM"
molecule=COc1ccc(-c2cc(/C=C/C(=O)c3ccc(N)cc3)[nH]n2)cc1 experimental_result="5.31 µM"
molecule=Cc1cc(-c2nc3c(F)cccc3s2)ccc1N experimental_result="> 100 µM"
molecule=CCN(c1ccccc1)[C@H]1C(=O)N(c2ccc([N+](=O)[O-])cc2)[C@H]1c1ccc(OC)cc1 experimental_result="> 100 µM"
molecule=COc1ccc(-c2csc(Nc3cccc(-c4csc(C)n4)c3)n2)cc1 experimental_result="> 50 µM"
molecule="CCc1ccc2c(c1)N(CCO)C1=C(C(=O)OC1)C2c1cc(OC)c(OC)c(OC)c1 (stereo not given)" experimental_result="> 19.8 µM"
molecule=O=C(Nc1ccccc1)OCCN=C1c2ccccc2CCc2ccccc21 experimental_result="75.4 µM"
molecule="CC(Oc1ccccc1Cl)C(=O)NN1C(=O)CC(=O)N(c2ccc(Cl)cc2)C1=S (stereo not given)" experimental_result="> 100 µM"
molecule=OCCN(CO)CO experimental_result="> 100 µM"
molecule=COc1cc(OC)c2c(=O)c3cccc(C)c3n(C)c2c1 experimental_result="> 100 µM"
molecule=COc1ccc(C)cc1NC(=S)C#N experimental_result="> 100 µM"
molecule="CC1(C)OC(=O)C(=C2CCC(C(=O)Nc3cccc(C(F)(F)F)c3)N2)C(=O)O1 (stereo not given)" experimental_result="> 100 µM"
molecule=Cc1nc2ccccc2c(=O)n1/N=C(\N=Nc1cc(Cl)ccc1Cl)c1ccccc1 experimental_result="> 100 µM"
molecule=CC1(C)OC[C@@H]([C@@]2(COC(c3ccccc3)(c3ccccc3)c3ccccc3)CC=CC(=O)O2)O1 experimental_result="> 100 µM"
molecule=C=C1C2=C(CCCC2)C(=O)OC12CCCCC2 experimental_result="> 100 µM"
molecule="O=P(NCCCO)(OCc1ccccc1)N(CCCl)CCCl (stereo not given)" experimental_result="> 100 µM"
molecule="O=C1CSC(c2ccccc2O)N1c1ccc(-n2c(-c3ccccc3)nc3ccccc3c2=O)cc1 (stereo not given)" experimental_result="> 100 µM"
molecule=COc1cc([C@@H]2c3cc4c(cc3[C@@H](Nc3ccc(Cl)cc3C(=O)c3ccccc3)[C@H]3COC(=O)[C@H]23)OCO4)cc(OC)c1OC experimental_result="> 100 µM"
molecule=O=C1Cc2cn[nH]c2-c2ccccc2N1 experimental_result="> 100 µM"
molecule=COC(=O)/C=C\C(C#N)(C#N)N=Cc1ccc(OC)cc1 experimental_result="11.5 µM"
molecule=COc1ccc(/C=C/C(=O)c2cc3c(N)c(C(=O)Nc4ccc(OC)cc4)sc3nc2C)cc1 experimental_result="> 50 µM"
molecule=N#CCc1cccc(CC#N)c1Br experimental_result="> 100 µM"
molecule=O=C(Cn1c2ccc(Br)cc2c2nc3ccccc3nc21)Nc1ccccc1 experimental_result="> 100 µM"
molecule=Cc1cc(S(N)(=O)=O)c(S/C(=N\NS(=O)(=O)c2ccccc2)c2ccc(Cl)cc2)cc1Cl experimental_result="> 100 µM"
molecule=CC(C)(O)c1cc2c(cc1C(C)(C)O)-c1ccccc1-2 experimental_result="> 100 µM"
molecule=COc1ccc2nc3ccc(OC)cc3c(SCCCl)c2c1 experimental_result="> 100 µM"
